- tgt: Delta-type opioid receptor (Rattus norvegicus)
- Sequence (P33533 whole entry): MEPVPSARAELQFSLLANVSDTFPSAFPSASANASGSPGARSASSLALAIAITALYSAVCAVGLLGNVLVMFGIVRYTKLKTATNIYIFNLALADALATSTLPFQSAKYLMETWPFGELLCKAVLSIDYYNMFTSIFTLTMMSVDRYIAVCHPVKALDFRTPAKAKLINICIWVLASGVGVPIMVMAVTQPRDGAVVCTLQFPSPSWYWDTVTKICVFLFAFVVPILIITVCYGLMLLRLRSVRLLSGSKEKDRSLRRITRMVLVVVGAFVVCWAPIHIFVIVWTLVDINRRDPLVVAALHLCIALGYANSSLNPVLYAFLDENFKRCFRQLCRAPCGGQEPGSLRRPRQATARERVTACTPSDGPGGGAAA
- test: Displacement of [3H]DADLE from delta opioid receptor in rat cerebrum membranes
metric-name: Ki (nM)
Value expressed in nM; do not type the unit.

input: Notebook: pull reported Ki for Delta-type opioid receptor (Rattus norvegicus), entry CC(C)CN1CC[C@]23Cc4nc5ccccc5cc4C[C@H]2[C@H]1Cc1cccc(O)c13
output: 1.22

input: Same again, this time with Oc1ccc2c3c1O[C@H]1c4nc5ccccc5cc4C[C@H]4[C@@H](C2)N(CC2CC2)CC[C@]314
output: 0.43

input: Same again, this time with CN1CC[C@]23Cc4nc5ccccc5cc4C[C@H]2[C@H]1Cc1cccc(O)c13
output: 1

input: Same again, this time with Oc1cccc2c1[C@]13CCN(CC4CC4)[C@H](C2)[C@@H]1Cc1cc2ccccc2nc1C3
output: 0.27
